# test-system: T1, human 5T4 (trophoblast glycoprotein), endogenous on the cell surface (human, UniProt Q13641 32-420)
# T1 construct: also called TPBG; 5T4 oncofetal antigen
# T1 sequence: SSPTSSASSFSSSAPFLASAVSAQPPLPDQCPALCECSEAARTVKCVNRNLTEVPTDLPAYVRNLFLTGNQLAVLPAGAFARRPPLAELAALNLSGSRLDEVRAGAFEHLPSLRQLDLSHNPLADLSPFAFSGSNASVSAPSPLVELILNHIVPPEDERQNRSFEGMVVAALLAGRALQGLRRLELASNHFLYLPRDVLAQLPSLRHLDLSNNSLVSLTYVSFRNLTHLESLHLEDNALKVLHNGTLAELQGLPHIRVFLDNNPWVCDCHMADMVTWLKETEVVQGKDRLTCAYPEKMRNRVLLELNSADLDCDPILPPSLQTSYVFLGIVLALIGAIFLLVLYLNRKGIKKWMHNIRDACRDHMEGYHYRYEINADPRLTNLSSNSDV
# experiment-notes: flow cytometry (FL4H median), sdAb-Fc titrated on 5T4-positive T47D cells
property: binding result

binder="hz16G10v9 sdAb-Fc (Fc fusion, Humanized variant of 16G10, linked to a human Fc; not shown: human Fc) EVQLVESGGGEVQPGGSLRLSCAASGRPFSSSAMGWFRQAPGKERETVAAVSRNGGSSYYAESVKGRFTISRDNDKNTVYLQMSSLRAEDTAVYYCAARSAAYSRSSETYTEKHDYTYWGQGTLVTVKP" observed_measurement=binds
binder="hz14B5v10 sdAb-Fc (Fc fusion, Humanized variant of 14B5, linked to a human Fc; also called hz14B510; not shown: human Fc) EVQLVESGGGEVQPGGSLRLSCAASERPFGTYAMGWFRQAPGKERDLVAAVSRNGGASQYGESVKGRFTISRDNAKNTMYLQMSSLRAEDTAVYYCAARSAAYSRSSEVYTGKDEYYYWGQGTLVTVKP" observed_measurement=binds

Value source: patent US20210340273A1
